src = patent US9518046B2

assay: Pharmacokinetics after intravenous and oral administration in rats; assay type: in vivo; conditions: rat, plasma; Rats; oral (p.o.) generally 5 or 10 mg/kg versus iv dosing
observation type: bioavailability (%)

chemical string: CC[C@H](Nc1ncnc(N)c1-c1nnc(C)o1)c1nc2cccc(-c3cnn(C)c3)c2c(=O)n1-c1ccccc1
assay value: 104

chemical string: C[C@H](Nc1ncnc(N)c1-c1nnn(C)n1)c1nc2cccc(-c3cnn(C)c3)c2c(=O)n1C1CC1
assay value: 72.5

chemical string: C[C@H](Nc1ncnc(N)c1-c1nnn(C)n1)c1nc2cccc(-c3cnn(C)c3)c2c(=O)n1-c1ccccc1
assay value: 105

chemical string: Cc1nnc(-c2c(N)ncnc2N[C@@H](C)c2nc3cccc(Cl)c3c(=O)n2C2CC2)o1
assay value: 96.4

chemical string: Cc1nnc(-c2c(N)ncnc2N[C@@H](C)c2nc3cccc(-c4cnn(C)c4)c3c(=O)n2-c2ccccc2)o1
assay value: 83

chemical string: CC[C@H](Nc1ncnc(N)c1-c1noc(C)n1)c1nc2cccc(-c3cnn(C)c3)c2c(=O)n1C1CC1
assay value: 78.7
